# Tested on: BDF1 mice, P388 leukemia ip, median survival T/C
# experiment.description: NCI In Vivo Anticancer Drug Screen. Data for tumor model P388 Leukemia (intraperitoneal) in B6D2F1 (BDF1) mice
# measurement.setup: endpoint: median survival time; dose: 200.0 mg/kg/injection; schedule: Q04DX003 (ip); vehicle: Klucel (hydroxypropylcellulose) (HPC); higher = longer survival
Toxic doses and inconclusive results are not listed.
endpoint.name: T/C

Prompt: Recall the recorded T/C for CCCCSCC(N)C(=O)O (centres undefined) with BDF1 mice, P388 leukemia ip, median survival T/C and state it.
Completion: 104 % of control

Prompt: Recall the recorded T/C for CN1C(=O)CN=C(c2ccc[nH]2)c2cc(Cl)ccc21 (tested in a mixture with another compound) with BDF1 mice, P388 leukemia ip, median survival T/C and state it.
Completion: 104 % of control

Prompt: Recall the recorded T/C for C(=C\c1cccnc1)/c1ccncc1 with BDF1 mice, P388 leukemia ip, median survival T/C and state it.
Completion: 86 % of control

Prompt: Recall the recorded T/C for CC1(C)C/C(=C\c2ccc(Cl)cc2)C(=O)c2ccccc21 with BDF1 mice, P388 leukemia ip, median survival T/C and state it.
Completion: 100 % of control

Prompt: Recall the recorded T/C for CCC(=O)OC1CC2C3CCC4=CC(=O)CCC4(C)C3CCC2(C)C1OC(=O)CC (centres undefined) with BDF1 mice, P388 leukemia ip, median survival T/C and state it.
Completion: 104 % of control

Prompt: Recall the recorded T/C for ClC(Cl)(Cl)c1cccc(C(Cl)(Cl)Cl)c1 with BDF1 mice, P388 leukemia ip, median survival T/C and state it.
Completion: 120 % of control

Prompt: Recall the recorded T/C for O=C(c1ccccc1)c1c2ccccc2c(-c2ccccc2)c2ccccc12 with BDF1 mice, P388 leukemia ip, median survival T/C and state it.
Completion: 87 % of control

Prompt: Recall the recorded T/C for Cc1ccc(S(=O)(=O)N(C)c2ccc(I)c(Cl)c2Cl)cc1 with BDF1 mice, P388 leukemia ip, median survival T/C and state it.
Completion: 90 % of control

Prompt: Recall the recorded T/C for CC(=O)Nc1ccc2c([N+](=O)[O-])cccc2c1-c1c(NC(C)=O)ccc2c([N+](=O)[O-])cccc12 with BDF1 mice, P388 leukemia ip, median survival T/C and state it.
Completion: 100 % of control

Prompt: Recall the recorded T/C for CCCC(=O)Nc1ccc(NS(C)(=O)=O)cc1OC with BDF1 mice, P388 leukemia ip, median survival T/C and state it.
Completion: 95 % of control

Prompt: Recall the recorded T/C for CCCCCCCCCCCCOP(N)(=O)OCCCCCCCCCCCC with BDF1 mice, P388 leukemia ip, median survival T/C and state it.
Completion: 97 % of control

Prompt: Recall the recorded T/C for O=c1ccccn1C/C(=N\O)c1ccccc1 with BDF1 mice, P388 leukemia ip, median survival T/C and state it.
Completion: 95 % of control

Prompt: Recall the recorded T/C for Cc1ccc(S(=O)(=O)N(CC(=O)O)c2cccc(Cl)c2)cc1 with BDF1 mice, P388 leukemia ip, median survival T/C and state it.
Completion: 104 % of control

Prompt: Recall the recorded T/C for C#CCOC(=O)Nc1ccccc1Cl with BDF1 mice, P388 leukemia ip, median survival T/C and state it.
Completion: 109 % of control

Prompt: Recall the recorded T/C for C[C@]12CCC(=O)C=C1CC[C@@H]1C2=CC[C@@]2(C)[C@H]1CC[C@]2(C)O with BDF1 mice, P388 leukemia ip, median survival T/C and state it.
Completion: 104 % of control

Prompt: Recall the recorded T/C for C(=N\Nc1nc2ccccc2s1)/c1ccc(/C=N/Nc2nc3ccccc3s2)cc1 with BDF1 mice, P388 leukemia ip, median survival T/C and state it.
Completion: 100 % of control

Prompt: Recall the recorded T/C for Cc1cc(N(CCCl)CCCl)ccc1C=Nc1ccccc1-c1ccccc1 with BDF1 mice, P388 leukemia ip, median survival T/C and state it.
Completion: 116 % of control

Prompt: Recall the recorded T/C for COc1ccc(/C=N/n2c(C)cc(C)c(C#N)c2=O)c(OC)c1OC with BDF1 mice, P388 leukemia ip, median survival T/C and state it.
Completion: 100 % of control

Prompt: Recall the recorded T/C for Nc1ccccc1SC1CC(=O)N(c2cccc3ccccc23)C1=O (centres undefined) with BDF1 mice, P388 leukemia ip, median survival T/C and state it.
Completion: 100 % of control

Prompt: Recall the recorded T/C for C/C(=N\Nc1ccc([N+](=O)[O-])cc1[N+](=O)[O-])C(F)(F)F with BDF1 mice, P388 leukemia ip, median survival T/C and state it.
Completion: 100 % of control

Prompt: Recall the recorded T/C for CCCCC(=O)c1ccc(F)cc1 with BDF1 mice, P388 leukemia ip, median survival T/C and state it.
Completion: 104 % of control

Prompt: Recall the recorded T/C for O=C(O)CCCCCCCCCCCCO with BDF1 mice, P388 leukemia ip, median survival T/C and state it.
Completion: 90 % of control

Prompt: Recall the recorded T/C for ClC(Cl)(Cl)C1OCOC(C(Cl)(Cl)Cl)OCO1 (centres undefined) with BDF1 mice, P388 leukemia ip, median survival T/C and state it.
Completion: 100 % of control

Prompt: Recall the recorded T/C for O=S(=O)(NS(=O)(=O)c1ccc(Cl)cc1)c1ccc(Cl)cc1 with BDF1 mice, P388 leukemia ip, median survival T/C and state it.
Completion: 86 % of control

* * *

# Test system: BDF1 mice, P388 leukemia ip, median survival T/C
# experiment.description: NCI In Vivo Anticancer Drug Screen. Data for tumor model P388 Leukemia (intraperitoneal) in B6D2F1 (BDF1) mice
# measurement.setup: endpoint: median survival time; dose: 100.0 mg/kg/injection; schedule: Q04DX003 (sc); vehicle: olive oil, sesame oil, peanut oil; higher = longer survival
Inconclusive results and toxic doses are left out.
Could you please report measured T/C for the items listed next?

Prompt: Item Cc1ccc(NC(=O)c2ccc(C)c([N+](=O)[O-])c2)c(C)c1 has what recorded T/C?
Completion: 88 % of control

Prompt: Item CCN(CC)c1cccc(N)c1 has what recorded T/C?
Completion: 104 % of control

Prompt: Item COC(OC)c1[nH]c(=S)[nH]c(=O)c1C has what recorded T/C?
Completion: 90 % of control

Prompt: Item CNc1cc(C(C)C)ccc1C has what recorded T/C?
Completion: 104 % of control

* * *

# System: BDF1 mice, P388 leukemia ip, median survival T/C
# experiment.description: NCI In Vivo Anticancer Drug Screen. Data for tumor model P388 Leukemia (intraperitoneal) in B6D2F1 (BDF1) mice
# measurement.setup: endpoint: median survival time; dose: 75.0 mg/kg/injection; schedule: Q01DX009 (ip); vehicle: saline; higher = longer survival
Toxic doses and inconclusive results are not listed.
endpoint.name: T/C

Prompt: Item CC1CN1P(=O)(N1CC=CCC1)N1CC1C (centres undefined) has what recorded T/C?
Completion: 91 % of control

Prompt: Item Cc1ccnc(NC2=CC(=O)C(=O)c3ccccc32)c1 has what recorded T/C?
Completion: 118 % of control

Prompt: Item O=c1[nH]cnc2ccnn12 has what recorded T/C?
Completion: 101 % of control

Prompt: Item CCCCCC[N+]1(C)CC2C3C=CC(C3)C2C1 (centres undefined) has what recorded T/C?
Completion: 90 % of control

* * *

# Test system: BDF1 mice, P388 leukemia ip, median survival T/C
# experiment.description: NCI In Vivo Anticancer Drug Screen. Data for tumor model P388 Leukemia (intraperitoneal) in B6D2F1 (BDF1) mice
# measurement.setup: endpoint: median survival time; dose: 50.0 mg/kg/injection; schedule: Q04DX003 (ip); vehicle: saline; higher = longer survival
Toxic doses and inconclusive results are not listed.
Could you please report measured T/C for the items listed next?

Prompt: Item Cc1c(C)c2ccc(N)cc2[nH]c1=O has what recorded T/C?
Completion: 106 % of control

Prompt: Item CN(CCC#N)C1=CCCC1 has what recorded T/C?
Completion: 100 % of control

Prompt: Item CCOC(=O)c1cnc(C)[nH]c1=O has what recorded T/C?
Completion: 100 % of control

Prompt: Item c1ccc(Nc2ncc3cnccn23)cc1 has what recorded T/C?
Completion: 92 % of control

* * *

# Test system: BDF1 mice, P388 leukemia ip, median survival T/C
# experiment.description: NCI In Vivo Anticancer Drug Screen. Data for tumor model P388 Leukemia (intraperitoneal) in B6D2F1 (BDF1) mice
# measurement.setup: endpoint: median survival time; dose: 100.0 mg/kg/injection; schedule: Q04DX003 (ip); vehicle: Klucel (hydroxypropylcellulose) (HPC)
Toxic doses and inconclusive results are not listed. Rule for the calls: active = survival T/C of 150% or more; inactive = T/C below 125% in these data.
Select the correct class. Options are active, inactive and nothing else.

Prompt: Hey, what did the test say about CC(=O)O[C@H]1C(=O)[C@@]2(C)[C@H]([C@H](OC(=O)c3ccccc3)[C@]3(O)C[C@H](OC(=O)[C@H](O)[C@@H](NC(=O)c4ccccc4)c4ccccc4)C(C)=C1C3(C)C)[C@]1(OC(C)=O)CO[C@@H]1C[C@@H]2O ?
Completion: active

Prompt: Hey, what did the test say about C(=N\Nc1nc2ccccc2s1)/c1ccc(/C=N/Nc2nc3ccccc3s2)cc1 ?
Completion: inactive

Prompt: Hey, what did the test say about Cc1cnc2c(N)[nH]nc2n1 ?
Completion: inactive

Prompt: Hey, what did the test say about C/C(=N\Nc1ccc([N+](=O)[O-])cc1[N+](=O)[O-])C(F)(F)F ?
Completion: inactive

Prompt: Hey, what did the test say about Cc1ccc(S(=O)(=O)N=S2CCCC2)cc1 ?
Completion: inactive

Prompt: Hey, what did the test say about Cc1ncc(CO)c(C2NOCc3ccc(Cl)cc32)c1O (stereo not drawn) ?
Completion: inactive

Prompt: Hey, what did the test say about CC(=O)/C=N/Nc1ccccc1 ?
Completion: inactive

Prompt: Hey, what did the test say about Nc1ccccc1-c1ccccc1N ?
Completion: inactive

Prompt: Hey, what did the test say about Cc1ccc(S(=O)(=O)Oc2cc(C)ccc2C)cc1 ?
Completion: inactive

Prompt: Hey, what did the test say about CCOC(=O)C(/C=N/C(N)=O)=C(\C)O ?
Completion: inactive

Prompt: Hey, what did the test say about O=C(OCC#CC#CCOC(=O)c1ccccc1)c1ccccc1 ?
Completion: inactive

Prompt: Hey, what did the test say about Cc1cc(=O)n(Cc2ccccc2)c(O)c1C ?
Completion: inactive

Prompt: Hey, what did the test say about O=[N+]([O-])c1ccccc1C=Nc1ccccc1 ?
Completion: inactive
